Biological target: TRPML3 (Homo sapiens, UniProt Q8TDD5)
Construct: expressed in transfected cells
Sequence (Q8TDD5 whole entry): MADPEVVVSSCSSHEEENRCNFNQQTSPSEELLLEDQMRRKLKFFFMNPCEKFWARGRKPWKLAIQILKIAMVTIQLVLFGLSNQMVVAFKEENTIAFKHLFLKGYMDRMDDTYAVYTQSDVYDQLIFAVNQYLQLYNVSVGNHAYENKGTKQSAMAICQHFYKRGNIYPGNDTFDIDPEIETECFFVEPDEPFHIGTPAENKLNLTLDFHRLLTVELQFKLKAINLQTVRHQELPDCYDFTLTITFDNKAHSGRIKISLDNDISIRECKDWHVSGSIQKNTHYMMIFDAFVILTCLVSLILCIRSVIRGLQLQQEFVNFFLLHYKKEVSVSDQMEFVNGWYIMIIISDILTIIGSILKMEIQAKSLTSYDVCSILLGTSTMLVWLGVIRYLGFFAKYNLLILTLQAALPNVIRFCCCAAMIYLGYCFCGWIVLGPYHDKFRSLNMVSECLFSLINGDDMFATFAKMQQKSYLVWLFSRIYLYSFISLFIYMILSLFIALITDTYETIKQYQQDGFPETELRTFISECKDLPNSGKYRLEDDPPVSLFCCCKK
Assay: Fluorescent TRPML3 assay (performed as for TRPML1, substituting the TRPML3 subtype)
Type: cell-based
pEC50: −log10 of the molar value.
Measurement label: pEC50

Here are 2 molecules together with their reported answers.
| Test smiles | Measurement target | Measurement label | Data value |
| --- | --- | --- | --- |
| CC(C)c1cn(-c2cc(C#N)ccn2)c2ncnc(N3C[C@@H](C)N(C(=O)OC(C)(C)C)C[C@@H]3C)c12 | TRPML3 (Homo sapiens, UniProt Q8TDD5) | pEC50 | > 7.00 |
| Cc1cn(-c2cncnc2)c2ncnc(N3C[C@@H](C)N(C(=O)OC(C)(C)C)C[C@@H]3C)c12 | TRPML3 (Homo sapiens, UniProt Q8TDD5) | pEC50 | < 5.70 |

In the following, a different molecule is considered.
What pEC50 value was documented for this molecule, `[2H]C([2H])([2H])C(OC(=O)N1C[C@H](C)N(c2nccc3c2c(C(F)(F)F)cn3-c2cc(C#N)ccn2)C[C@H]1C)(C([2H])([2H])[2H])C([2H])([2H])[2H]` ?
> 7.00

====

Target: TRPML2 (Homo sapiens)
Construct: expressed in transfected cells
Sequence (Q8IZK6 whole entry): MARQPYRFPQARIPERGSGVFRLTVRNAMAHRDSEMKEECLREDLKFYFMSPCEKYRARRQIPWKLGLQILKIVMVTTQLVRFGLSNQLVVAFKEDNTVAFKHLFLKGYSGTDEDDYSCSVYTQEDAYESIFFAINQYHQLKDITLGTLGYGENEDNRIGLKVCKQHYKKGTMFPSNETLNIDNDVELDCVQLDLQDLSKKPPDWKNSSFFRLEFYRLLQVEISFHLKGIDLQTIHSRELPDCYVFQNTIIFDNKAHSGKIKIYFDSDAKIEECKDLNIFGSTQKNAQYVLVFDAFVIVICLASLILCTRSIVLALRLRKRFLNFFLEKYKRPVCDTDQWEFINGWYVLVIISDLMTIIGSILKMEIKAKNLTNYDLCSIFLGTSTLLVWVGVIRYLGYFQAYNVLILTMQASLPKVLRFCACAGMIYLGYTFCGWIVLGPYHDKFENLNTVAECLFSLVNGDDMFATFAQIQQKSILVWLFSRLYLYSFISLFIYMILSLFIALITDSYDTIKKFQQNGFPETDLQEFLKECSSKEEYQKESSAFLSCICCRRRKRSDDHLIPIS
Experiment: Fluorescent TRPML2 assay (performed as for TRPML1, substituting the TRPML2 subtype)
Assay type: cell-based
pEC50: −log10 of the molar value.
Measurement label: pEC50

| Test smiles | Data value |
| --- | --- |
| C[C@@H]1CN(c2ncnc3c2c(C(F)(F)F)cn3-c2cc(C(F)(F)F)ccn2)[C@@H](C)CN1C(=O)OC(C)(C)C | > 7.00 |

Suppose we examine the molecule `CC(C)(C)OC(=O)N1CCN(c2ncnc3c2c(C(F)(F)F)cn3-c2cc(C#N)ccn2)C2(CC2)C1` ; what pEC50 value has been reported?
> 7.00

Need pEC50 of `C[C@@H]1CN(c2ncnc3c2c(C(C)(C)C)cn3-c2cc(C#N)ccn2)[C@@H](C)CN1C(=O)OC(C)(C)C` , thanks.
> 7.00

====

Target: TRPML2 (Homo sapiens)
Construct: expressed in transfected cells
Experiment: Fluorescent TRPML2 assay (performed as for TRPML1, substituting the TRPML2 subtype)
Format: cell-based
Conditions: fluorescent calcium assay
pEC50: −log10 of the molar value.
Entries and their measured pEC50 follow.

For orientation, consider the following solved cases.
| Test smiles | pEC50 |
| --- | --- |
| C[C@H]1CN(C(=O)OC(C)(C)C)CCN1c1ncnc2c1c(-c1ccncn1)cn2-c1cccc(Cl)c1 | 5.70 to 6.30 |
| C[C@H]1CN(C(=O)OC(C)(C)C(F)(F)F)CCN1c1ncnc2c1c(C1CC1)cn2-c1cccc(Cl)c1 | > 7.00 |
| CC(C)(C)OC(=O)N1CCN(c2ncnc3c2c(-c2ccccc2F)cn3-c2cc(C#N)ccn2)C(C)(C)C1 | > 7.00 |
| CC(C)(C)OC(=O)N1CCN(c2ncnc3c2c(C2CC2)cn3-c2cc(F)cc(F)c2)CC12CC2 | 5.70 to 6.30 |
| C[C@H]1CN(C(=O)OC(C)(C)C)CCN1c1ncnc2c1c(C1COC1)cn2-c1cc(F)cc(F)c1 | < 5.70 |
| C[C@@H]1CN(c2ncnc3c2c(N2CCCC2)cn3-c2cc(C#N)ccn2)CCN1C(=O)OC(C)(C)C | > 7.00 |
| C[C@H]1CN(C(=O)OC(C)(C)C)CCN1c1ncnc2c1c(C1CC1)cn2-c1ccc(F)cc1 | 6.30 to 7.00 |
| CC(C)(C)OC(=O)N1CCN(c2ncnc3c2c(C2CC2)cn3-c2cc(C#N)ccn2)C2(CC2)C1 | > 7.00 |
| Cc1ccc(Cl)cc1-n1cc(N2CCCC2)c2c(N3CCN(C(=O)OC(C)(C)C)C[C@@H]3C)ncnc21 | 5.70 to 6.30 |
| C[C@H]1CN(C(=O)OC(C)(C)C)CCN1c1ncnc2c1c(N1CCC1)cn2-c1cccc(C#N)c1 | > 7.00 |

Attention now shifts to the item below.
Data request, read-out pEC50, for `C[C@H]1CN(C(=O)OC(C)(C)C)CCN1c1ncnc2c1c(-c1cnccn1)cn2-c1cc(F)cc(F)c1`
5.70 to 6.30
